assay_details: MRT (0 to t) in Sprague-Dawley rat at 2 mg/kg, iv measured upto 24 hrs by LC-MS/MS analysis
Assay type: ADME, organism-based
experimental_context: in vivo
parameter: MRT last at 24 h
# output: number + unit

query: Requested field: MRT last at 24 h. Item: `O=[N+]([O-])c1ccc(O)c(/C=N/Nc2nc(NCc3ccc(F)cc3)nc(NCc3ccc(F)cc3)n2)c1`
result: 45 min

====

Test system: Candida albicans
assay_details: Antifungal activity against FCZ-resistant Candida albicans SC5314 assessed as growth inhibition measured after 48 hrs incubation by CLSI based micro-dilution broth method
Assay type: functional
parameter: MIC80 (µg/mL)
The response must be a number in µg/mL with no trailing unit.

Worked cases, answers included:
INSERT INTO results (structure_string, endpoint_value) VALUES
  ('COc1ccc(Nc2nc(N/N=C/c3cc([N+](=O)[O-])ccc3O)nc(Nc3ccc(OC)cc3)n2)cc1', 2),
  ('OC(Cn1cncn1)(Cn1cncn1)c1ccc(F)cc1F', 0.5),
  ('O=[N+]([O-])c1ccc(O)c(/C=N/Nc2nc(NCc3ccc(F)cc3)nc(NCC3CCCCC3)n2)c1', 2);

query: // returns reported MIC80 for input `O=[N+]([O-])c1ccc(O)c(/C=N/Nc2nc(NCc3ccc(F)cc3)nc(Nc3ccc(F)cc3)n2)c1`
result: 2

query: Would you kindly share the measured MIC80 for `O=[N+]([O-])c1ccc(O)c(/C=N/Nc2nc(NCc3ccc(F)cc3)nc(N3CCOCC3)n2)c1` ?
result: 4

query: Quick one: MIC80 of `O=[N+]([O-])c1ccc(O)c(/C=N/Nc2nc(NCc3ccco3)nc(NCc3ccco3)n2)c1` ?
result: 2

====

Tested on: Candida albicans
assay_details: Antifungal activity against FCZ-resistant Candida albicans SC5314 assessed as growth inhibition measured after 48 hrs incubation by CLSI based micro-dilution broth method
Assay type: functional
parameter: MIC80 (µg/mL)
Reply numerically in µg/mL, unit not repeated.

See these solved cases before continuing.
INSERT INTO results (structure_string, measured_on, parameter, endpoint_value) VALUES
  ('COc1ccc(Nc2nc(NCc3ccco3)nc(N/N=C/c3cc([N+](=O)[O-])ccc3O)n2)cc1', 'Candida albicans', 'MIC80', 2),
  ('O=[N+]([O-])c1ccc(O)c(/C=N/Nc2nc(NCc3ccccc3)nc(NCc3ccc(F)cc3)n2)c1', 'Candida albicans', 'MIC80', 2),
  ('O=[N+]([O-])c1ccc(O)c(/C=N/Nc2nc(NCc3ccc(F)cc3)nc(NCc3ccc(F)cc3)n2)c1', 'Candida albicans', 'MIC80', 4),
  ('NCCOCCOCCNC(=O)Cc1ccc(Nc2nc(NCc3ccc(F)cc3)nc(NCC3CCCCC3)n2)cc1', 'Candida albicans', 'MIC80', 16);

query: Identify the measured MIC80 of `COc1ccc(Nc2nc(NCc3ccc(F)cc3)nc(N/N=C/c3cc([N+](=O)[O-])ccc3O)n2)cc1` for Candida albicans.
result: 2

====

assay_details: Cytotoxicity against human HUVEC cells assessed as cell viability measured after 24 hrs by CCK-8 assay
Format: toxicity, cell-based
parameter: IC50 at 24 h (µg/mL)
# number only, unit µg/mL dropped from output

INSERT INTO assay_data (structure_string, endpoint_value) VALUES
  ('NCCOCCOCCNC(=O)Cc1ccc(Nc2nc(NCc3ccc(F)cc3)nc(NCC3CCCCC3)n2)cc1', 48.2);

Here's the next entry for you.
query: Look at this compound and give its reported IC50 at 24 h. `O=[N+]([O-])c1ccc(O)c(/C=N/Nc2nc(NCc3ccc(F)cc3)nc(NCc3ccc(F)cc3)n2)c1`
result: 41.4

====

Tested on: Candida albicans
assay_details: Antifungal activity against FCZ-resistant Candida albicans SC5314 assessed as growth inhibition measured after 48 hrs incubation by CLSI based micro-dilution broth method
Assay type: functional
parameter: MIC80 (µg/mL)
Entry rule: numbers only, all in µg/mL.

query: Param readout= MIC80; system= Candida albicans; entry= `O=[N+]([O-])c1cccc(/C=N/Nc2nc(NCc3ccc(F)cc3)nc(NCc3ccc(F)cc3)n2)c1O` ; returns value.
result: 8

query: Give recorded MIC80 with Candida albicans for the following molecule: `O=[N+]([O-])c1ccc(O)c(/C=N/Nc2nc(NCc3ccc(F)cc3)nc(NCc3ccco3)n2)c1`
result: 2

====

assay_details: Cytotoxicity against human HUVEC cells assessed as cell viability at 16 microg/ml measured after 24 hrs by CCK-8 assay relative to control
Type: toxicity, cell-based
experimental_context: at 16 µg/mL, read-out: Activity
parameter: viability at 24 h, 16 microg/ml (%)
Answer with a number only, understood to be in %.

INSERT INTO results (structure_string, endpoint_value) VALUES
  ('O=[N+]([O-])c1ccc(O)c(/C=N/Nc2nc(NCc3ccc(F)cc3)nc(NCc3ccc(F)cc3)n2)c1', 75.5),
  ('OC(Cn1cncn1)(Cn1cncn1)c1ccc(F)cc1F', 82.8);

Switching to the query record.
query: Entry `NCCOCCOCCNC(=O)Cc1ccc(Nc2nc(NCc3ccc(F)cc3)nc(NCC3CCCCC3)n2)cc1` has what viability at 24 h, 16 microg/ml?
result: 89.8
